targetEntity: NAD-dependent protein deacetylase sirtuin-2 (Homo sapiens)
Sequence (Q8IXJ6 whole entry, the tested form may be a part): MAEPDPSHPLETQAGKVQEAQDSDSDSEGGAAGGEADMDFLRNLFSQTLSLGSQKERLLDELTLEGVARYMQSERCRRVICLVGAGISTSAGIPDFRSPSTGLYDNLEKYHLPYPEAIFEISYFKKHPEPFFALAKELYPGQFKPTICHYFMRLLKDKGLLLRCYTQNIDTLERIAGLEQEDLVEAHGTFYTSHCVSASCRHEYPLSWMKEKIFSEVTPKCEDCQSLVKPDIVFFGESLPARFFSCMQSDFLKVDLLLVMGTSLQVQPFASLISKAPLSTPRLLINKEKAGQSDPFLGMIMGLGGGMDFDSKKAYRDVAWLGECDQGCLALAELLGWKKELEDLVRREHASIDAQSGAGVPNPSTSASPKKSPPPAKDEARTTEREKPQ
protocolText: Inhibition of human Sirt2 (56 to 356 residues) demyristoylation expressed in Escherichia coli BL21 (DE3) using ZMML as substrate incubated for 4 hrs in presence of NAD+ by fluorescence based microplate reader assay
experimentalReadout: IC50 (µM)

[I] COc1ccc(CC(=O)Nc2ccc(-c3noc(CC4CCCN(Cc5cccc(F)c5C)C4)n3)cc2)cc1 (centres undefined)
[II] COc1ccc(C(=O)Nc2ccc(-c3noc(CC4CCCN(Cc5cccc(F)c5C)C4)n3)cc2)cc1 (centres undefined)
Determine, for I and II , which has the greater value of IC50. Select an item and report its label. I

Data provenance: ChEMBL document CHEMBL5500394
